meta.source: PubChem BioAssay (NCI)

Assignment: determine reported TGI for the given compounds.
# Test system: SF-268 CNS
# method.notes: NCI tumour cell line growth inhibition, 48 h

The following compounds have reported results that may help.
O=S(=O)(N/N=C/c1ccc(Cl)c(Cl)c1)c1ccccc1; > 100 µM
Cc1ccc(N=NC2S/C(=C(\C#N)c3nc4ccccc4[nH]3)N(c3ccccc3)C2=O)cc1 (stereo not given); > 100 µM
CC(C)(O)C#Cc1ccc(/C=C/C(=O)c2ccccc2)s1; 32.8 µM

Need TGI for each of these compounds.
1. O=C(O)C1=CCCc2ccc3ccccc3c21
2. Cn1cc(C2=C(c3cccc(N)c3)C(=O)NC2=O)c2ccccc21
3. Cn1ccnc1C(=O)/C=C/c1ccc(C(=O)Nc2ccc(S(F)(F)(F)(F)F)cc2)cc1
4. S=C1Cc2c(-c3ccc(Cl)cc3)cc(-c3ccccc3)nc2-c2ccccc2N1

["> 100 µM", "> 25 µM", "> 14.3 µM", "34.6 µM"]

----------
# System: OVCAR-4 ovarian
# method.notes: NCI tumour cell line growth inhibition, 48 h
Can you tell me TGI for the items I'm about to list?

Record excerpt, results attached:
COc1cc2c(c(O)c1OC)C(O)C1CCC(=O)N1C2c1cccc2ccccc12 (stereo unspecified); > 100 µM
Cc1cc(NCCCNc2ccnc3cc(Cl)ccc23)nc(N2CCN(C)CC2)n1; 44.5 µM
CC1OC(n2ccc(=O)[nH]c2=O)C=C(OC(=O)c2ccccc2)C1=O (stereo unspecified); 36.8 µM

Required: TGI, one value per compound below.
1. CC1(C)C2CCC(CN)(C2)C1O (stereo unspecified)
2. Fc1ccc(-c2nn3c(-c4ccc(F)c(Cl)c4)nnc3s2)cc1
3. O=c1cc(-c2ccccc2)oc2cc(O)c(O)c(O)c12
4. C/C(=C\c1ccccc1)C(=O)NCc1ccc(C(=O)NCCC(C)C)cc1

["> 100 µM", "41 µM", "> 100 µM", "> 100 µM"]

Quick request: TGI for each listed item, please.
1. COC(=O)C1CCC(Nc2ccc(C)cc2C)=N1 (stereo unspecified)
2. COP(=O)(Cc1ccc(/C=C/C#N)o1)OC
3. CC(C)[C@H]1CC[C@H]2[C@@H](CC[C@H]3[C@](C)(CN)CCC[C@]23C)C1
4. N#C/C(=N\Nc1ccc(Cl)cc1)C(=O)Nc1cc(-c2ccccc2)nn1-c1ccccc1
5. Cc1ccc(N=NC2S/C(=C(\C#N)c3nc4ccccc4[nH]3)N(c3ccccc3)C2=O)cc1 (stereo unspecified)
6. O=C1[C@@H]2C(c3ccc(Cl)cc3Cl)=NO[C@@H]2C(=O)N1c1ccc(Cc2ccc(N3C(=O)[C@H]4C(c5ccc(Cl)cc5Cl)=NO[C@H]4C3=O)cc2)cc1

1: > 100 µM; 2: > 100 µM; 3: 20.3 µM; 4: 7.62 µM; 5: > 100 µM; 6: > 100 µM

----------
Would you kindly list TGI for each of these compounds?
# Test system: CCRF-CEM leukemia
# method.notes: NCI tumour cell line growth inhibition, 48 h

O=C(Nc1ccc(F)cc1)Nc1ccccc1CNc1nc(Nc2ccc(OCCN3CCCC3)cc2)ncc1Cl; 5.93 µM
O=C(C=Nc1ccccc1C(=O)[O-])c1cccs1.O=C(C=Nc1ccccc1C(=O)[O-])c1cccs1.[Co+2]; > 100 µM
Nc1ncnc2c1ncn2Cc1ccc(C23CC4CC(CC(C4)C2)C3)c(OCc2cc(F)c(F)cc2F)c1; 6.84 µM
C#CCNC(=O)NCCCC(NC(C)=O)C(=O)NCc1ccccc1 (stereo unspecified); > 100 µM
COC(=O)c1cc2c3c(cc(N(C)C)c2[nH]1)N(C(=O)c1cc2cc(OC)c(OC)c(OC)c2[nH]1)CC3CCl (stereo unspecified); 0.0538 µM
CCCCCCCC(=O)NCC(O)CNC(=O)CCCCCCC; > 100 µM

Provide reported TGI for each item, in the same order as listed.
1. N#CC(/C(=N/NC(=O)C(=O)NN)C(=O)Nc1nc([N+](=O)[O-])cs1)c1ccc(Cl)cc1 (stereo unspecified)
2. S=c1nc(Cc2ccc(Cl)cc2)[nH][nH]1
3. C1=Nc2ccc(cc2)N=Cc2ccc(cc2)OCc2cccc(n2)COc2ccc1cc2
4. CC(=O)N1N=C(c2ccc(Nc3nc(Nc4ccc(Cl)cc4)nc(Nc4ccc(Cl)cc4)n3)cc2)CC1c1ccc([N+](=O)[O-])cc1 (stereo unspecified)
5. CSc1cccc(-n2c3nc(=O)n(C)c(=O)c-3nc3ccccc32)c1
6. CN(C)c1ccc(/C=C(\NC(=O)c2ccccc2)C(=O)NCC(=O)O)cc1
7. COC(=O)C1CCOC(C)N1C(=O)OC(C)(C)C (stereo unspecified)

1. > 100 µM
2. > 100 µM
3. > 100 µM
4. > 32.2 µM
5. 42.7 µM
6. > 100 µM
7. > 100 µM

I would be grateful if you could provide TGI for each of the following entries.
1. COc1cc(/C=N/n2c(Cc3ccc(Cl)cc3)n[nH]c2=O)cc(OC)c1OC
2. COc1cc(C(=O)N2N=C(c3ccc(S(C)(=O)=O)cc3)CC2c2ccco2)cc(OC)c1OC (stereo unspecified)

["> 100 µM", "> 25.4 µM"]

----------
# Tested on: NCI/ADR-RES ovarian
# method.notes: NCI tumour cell line growth inhibition, 48 h; in the data active = GI50 below about 0.43 µM; inactive = the rest
Write down one outcome, taken from active, inactive

These solved cases illustrate the format of a correct answer.
CCCCCCc1cc2cc(-c3nc4ccccc4[nH]3)c(=Nc3ccccc3C)oc2cc1O; inactive
O=C1C2C(C(=O)[N]1[Hg][c]1cccs1)C1(Cl)C(Cl)=C(Cl)C2(Cl)C1(Cl)Cl (configuration not stated); inactive
CC(C)(O)C#Cc1ccc(/C=C/C(=O)c2ccccc2)s1; inactive
Cc1cc2cc3cc(C)c(N(C)C)cc3[n+](C)c2cc1N(C)C; inactive
CN(CCCCCl)P(=O)(OCc1ccc([N+](=O)[O-])o1)OCC1OC(n2ccc(N)nc2=O)C(F)(F)C1O (configuration not stated); active
O=S(=O)(Cc1ccc(Cl)cc1Cl)c1ccc(Cl)cc1; inactive
S=C(N/N=C(/c1ccccc1)c1ccccn1)N1CCCCC1; active
CCC[CH2][Sn]([CH2]CCC)([O]C(=O)c1cc(F)ccc1F)[O][Sn]([CH2]CCC)([CH2]CCC)[O]C(=O)c1cc(F)ccc1F; inactive
CC(=O)O[C@@]12CO[C@@H]1C[C@H](O)[C@@]1(C)C(=O)[C@H](O)C3=C(C)[C@@H](OC(=O)[C@H](O)[C@@H](NC(=O)OC(C)(C)C)c4ccccc4)C[C@@](O)([C@@H](OC(=O)c4ccccc4)[C@H]21)C3(C)C; inactive
C#CCN(Cc1nc2cc(C(F)(F)F)ccc2nc1-c1ccccc1)c1ccc(OC(F)(F)F)cc1; inactive

# ---- query molecule ----
For COc1cc(-n2cc(-c3ccc(F)cc3)nc2SCc2ccccc2)cc(OC)c1OC , which call appears in the assay record? inactive

----------
# Test system: SK-OV-3 ovarian
# method.notes: NCI tumour cell line growth inhibition, 48 h
readout.type: TGI (µM)
Give bare numbers, in µM.

N/C(=C\C(=O)n1nc(-c2ccccc2)cc1N)c1ccccc1; 39

Proceed to the following item.
API: value(readout=TGI, system=SK-OV-3 ovarian) for record CCOc1ccc(Nc2nc3c(s2)C(=O)c2ccccc2C3=O)cc1 34.3

----------
# System: OVCAR-3 ovarian
# method.notes: NCI tumour cell line growth inhibition, 48 h
readout.type: TGI

CCOC(=O)c1c(-c2ccccc2)oc(-c2ccccc2)c1C(=O)OCC; > 100 µM

Please look at the items below and tell me TGI for each one, in order.
1. CC(=O)CCc1ccc(OC2OC(COC(=O)c3cc(O)c(O)c(O)c3)C(O)C(O)C2OC(=O)/C=C/c2ccccc2)cc1 (stereo not given)
2. Nc1nc2sc3ccccc3c(=O)n2n1
3. O=C1CS(=O)(=O)C(c2cccc(Oc3ccccc3)c2)N1c1cccc(Cl)c1 (stereo not given)
4. COc1ccc2c(c1)=C(C=C1C=CN(O)C=C1)C(=O)N=2
5. CN(C)CCN(C)CC1COC(C)(C)O1 (stereo not given)
6. Nc1ccc2nc(NCc3ccc(F)cc3)cnc2c1
7. COC(=O)C1=C(C)NC(C)=C(C(=O)OC)C1/C=C(\Cl)c1ccc(Cl)c(Cl)c1

1: 72.4 µM; 2: > 100 µM; 3: 95.1 µM; 4: > 78.1 µM; 5: > 100 µM; 6: > 100 µM; 7: 26.3 µM

// input: 2 molecules below; output: TGI for each
1. O=C(C[C@H](NC(=O)OCc1ccccc1)C(=O)NC1Cc2ccccc2OC1=O)OCc1ccccc1 (stereo not given in full)
2. CC(C)C[C@H](NC(=O)[C@H](Cc1ccccc1)NC(=O)CCc1ccccc1)B(O)O

1. > 100 µM
2. < 0.01 µM

----------
Please respond with reported TGI for every item in the list.
# Test system: MOLT-4 leukemia
# method.notes: NCI tumour cell line growth inhibition, 48 h
Give bare numbers, in µM.

O=C1CS(=O)(=O)C(c2cccc(Oc3ccccc3)c2)N1c1cccc(Cl)c1 (stereo unspecified); 58.1
CCOc1ccc(-c2cnnn2-c2nonc2-n2cccc2)cc1; 31.7
CCN(CC)c1ccc(/C=C2/C[N+](C)(C)C/C(=C/c3ccc(N(CC)CC)cc3)C2=O)cc1; 4.83

// each listed compound needs a value for TGI
1. CC(C)(C)n1c(=O)[nH]n(C2NN=Cc3cccc4cccc2c34)c1=O (stereo unspecified)
2. CCCCCCc1cc2cc(-c3nc4ccccc4[nH]3)c(=Nc3ccccc3C)oc2cc1O

1. 81.1
2. 22.5
